The measurements presented in this section are drawn from patent US20200317802A1.

Molecular target: T1, recombinant human ADAMTS5 (R&D Systems cat #2198-AD) (human, UniProt Q9UNA0 262-622, limits assumed)
T1 construct: bought protein
T1 sequence: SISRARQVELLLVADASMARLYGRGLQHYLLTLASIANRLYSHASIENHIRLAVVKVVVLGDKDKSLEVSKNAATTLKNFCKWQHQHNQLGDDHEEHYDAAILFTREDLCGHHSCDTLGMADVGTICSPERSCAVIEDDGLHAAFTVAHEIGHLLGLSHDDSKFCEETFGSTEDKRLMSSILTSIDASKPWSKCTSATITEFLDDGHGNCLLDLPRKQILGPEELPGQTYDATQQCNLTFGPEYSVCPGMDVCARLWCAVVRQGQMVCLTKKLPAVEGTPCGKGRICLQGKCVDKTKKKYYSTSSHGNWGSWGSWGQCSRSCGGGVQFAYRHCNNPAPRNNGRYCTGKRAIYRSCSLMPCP
Assay: SPR off-rate, Biacore T100, ADAMTS5 immobilised, experiment 3
Outcome measure: koff (s⁻¹)
Answers are plain numbers, in s⁻¹.

# example entries with known answers
Binder	Unit text	koff
Nanobody 3B02 (VHH, tagged as tested (anti-Flag detection, IMAC); also called 03B02; 3B2) VHH: EVQLVESGGGFVQAGGSLRLSCVASRRTISSGTMGWFRQAPGKEREFVAAIRWSSGMPYYLDSVMDRFTISRDNAKNTVSLQMNSLQPEDTAVYYCAADRSAFRDPSFDVNYEYWGRGTLVTVSS	s⁻¹	0.0012
Nanobody 2D07 (VHH, tagged as tested (anti-Flag detection, IMAC); also called 02D07; 2D7) VHH: EVQLVESGGGLVQAGGSLRLSCSFSGPGRTFARYAMGWFRQAPGKNRDFITGISGSGDSTYYVYPMKDRFTISRDNAKNMVYLQMNALKPEDTAVYYCAADREINRIANDKELDFWGQGTLVTVSS	s⁻¹	0.001

Now, please, on to the next binder.
Give its koff value. Item: Nanobody 2A12 (VHH, tagged as tested (anti-Flag detection, IMAC); also called 02A12) VHH: EVQLVESGGGLVQAGGSLRLSCAASGRTFSSYAMGWFRQAPGKERDFVAGISRSAGRTYYVDSVKGRFTISRDSAKNTVYLQMNRLKPEDTAVYYCAADLDPNRIFSRDEAAYWGQGTLVTVSS
0.00031
